# System: Septoria tritici
# Assay notes: In vivo preventive test on Septoria tritici (wheat)
# Conditions: 500 ppm, wheat plants, preventive spray, evaluated 24 days after inoculation
A collection of compounds and their measured Efficacy
Your answer should be a plain number; it is taken to be in %.

[
  {
    "Compound": "Cn1nc(C(F)F)c(C(=O)N(Cc2cccc3c2C2CCC3O2)C2CC2)c1F (stereo not drawn)",
    "Efficacy [%]": 100
  },
  {
    "Compound": "Cn1cc(C(=O)N(Cc2cccc3c2C2CCC3C2=C(Cl)Cl)C2CC2)c(C(F)F)n1 (stereo not drawn)",
    "Efficacy [%]": 97
  }
]

Per the records, this compound ( Cn1nc(C(F)F)c(C(=O)N(Cc2cccc3c2C2C=CC3O2)C2CC2)c1F (stereo not drawn) ) has Efficacy equal to 98

* * *

# Assay notes: log P by HPLC on reversed-phase column (C 18), EEC Directive 79/831 Annex V.A8
# Type: physicochemical
# Conditions: reversed-phase HPLC column (C 18); Table 2 (amines of formula IIa); HPLC, 0.1% aqueous formic acid and acetonitrile; read-out: logP
Readout label: chromatographic logP
Lab note: record the figure alone, no unit after it.

Use the examples below as a reference point.
[
  {
    "Molecule": "c1cc(CNC2CC2)c2c(c1)C1CCC2O1 (stereo not shown)",
    "chromatographic logP": 0.45
  },
  {
    "Molecule": "C1=CC2CC1c1cccc(CNC3CC3)c12 (stereo not shown)",
    "chromatographic logP": 1.13
  },
  {
    "Molecule": "C1=CC2OC1c1cccc(CNC3CC3)c12 (stereo not shown)",
    "chromatographic logP": 0.13
  }
]

Continue with the molecule presented below.
Short answer for c1cc(CNC2CC2)c2c(c1)C1CCC2C1 (stereo not shown) : chromatographic logP was 1.31

* * *

# System: Alternaria brassicae
# Assay notes: In vivo preventive test on Alternaria brassicae (leaf spot on radish)
# Conditions: 500 ppm, radish plants, preventive spray, evaluated 6 days after inoculation
Readout label: Efficacy (%)
Please give a number only; it is taken to be in %.

Below: 3 compounds and their reported Efficacy.
[
  {
    "Compound": "Cn1nc(C(F)F)c(C(=O)N(Cc2cccc3c2C2CCC3C2=C(Cl)Cl)C2CC2)c1F (centres unmarked) [I.08]",
    "Efficacy (%)": 100
  },
  {
    "Compound": "Cn1nc(C(F)F)c(C(=O)N(Cc2cccc3c2C2C=CC3C2)C2CC2)c1F (centres unmarked) [I.04]",
    "Efficacy (%)": 83
  },
  {
    "Compound": "Cn1nc(C(F)F)c(C(=S)N(Cc2cccc3c2C2CCC3C2)C2CC2)c1F (centres unmarked) [I.02]",
    "Efficacy (%)": 79
  }
]

Cn1nc(C(F)F)c(C(=O)N(Cc2cccc3c2C2CCC3C2)C2CC2)c1F (centres unmarked) [I.01] yielded Efficacy of 81

The compound listed as Cn1cc(C(=O)N(Cc2cccc3c2C2CCC3C2=C(Cl)Cl)C2CC2)c(C(F)F)n1 (centres unmarked) [I.07] has a reported Efficacy of 97

* * *

Catalogue of compounds with associated Efficacy
# Tested on: Pyrenophora teres
# Assay notes: In vivo preventive test on Pyrenophora teres (net blotch on barley)
# Conditions: 500 ppm, barley plants, preventive spray, evaluated 14 days after inoculation
Form field: result (number plus unit)

[
  {
    "Compound": "Cn1nc(C(F)F)c(C(=O)N(Cc2cccc3c2C2CCC3C2=C(Cl)Cl)C2CC2)c1Cl (stereo not shown) [I.06]",
    "Assay target": "Pyrenophora teres",
    "Experimental result": "71%"
  }
]

Per the records, this compound ( Cn1nc(C(F)F)c(C(=O)N(Cc2cccc3c2C2CCC3C2=C(Cl)Cl)C2CC2)c1F (stereo not shown) [I.08] ) has Efficacy equal to 97%

compound Cn1nc(C(F)F)c(C(=O)N(Cc2cccc3c2C2CCC3C2)C2CC2)c1F (stereo not shown) [I.01] , Efficacy observed: 100%

Form field Efficacy, entry Cn1cc(C(=O)N(Cc2cccc3c2C2C=CC3C2)C2CC2)c(C(F)F)n1 (stereo not shown) [I.03] : 88%

# Efficacy of Cn1nc(C(F)F)c(C(=O)N(Cc2cccc3c2C2C=CC3O2)C2CC2)c1F (stereo not shown) [I.14] = 75%

Cn1nc(C(F)F)c(C(=O)N(Cc2cccc3c2C2C=CC3C2)C2CC2)c1F (stereo not shown) [I.04] yielded Efficacy of 100%

// recorded Efficacy for Cn1cc(C(=O)N(Cc2cccc3c2C2CCC3C2=C(Cl)Cl)C2CC2)c(C(F)F)n1 (stereo not shown) [I.07] : 97%

* * *

# System: Septoria tritici
# Assay notes: In vivo preventive test on Septoria tritici (wheat)
# Conditions: 500 ppm, wheat plants, preventive spray, evaluated 24 days after inoculation
# Method: Example E: In Vivo Preventive Test on Septoria tritici (Wheat) [table] The active ingredients are made soluble and homogenized in a mixture of Dimethyl sulfoxide/Acetone/Tween®80 and then diluted in water to the desired concentration. The young plants of wheat are treated by spraying the active ingredient prepared as described above. Control plants are treated only with an aqueous solution of Acetone/Dimethyl sulfoxide/Tween® 80. […]
Catalogue of compounds with associated Efficacy
The reply should contain only the number, in %.

[
  {
    "Compound": "Cn1nc(C(F)F)c(C(=O)N(Cc2cccc3c2C2C=CC3C2)C2CC2)c1F (stereo not drawn) [I.04]",
    "Efficacy, %": 98
  },
  {
    "Compound": "Cn1nc(C(F)F)c(C(=O)N(Cc2cccc3c2C2C=CC3C2)C2CC2)c1Cl (stereo not drawn) [I.05]",
    "Efficacy, %": 81
  },
  {
    "Compound": "Cn1nc(C(F)F)c(C(=S)N(Cc2cccc3c2C2CCC3C2)C2CC2)c1F (stereo not drawn) [I.02]",
    "Efficacy, %": 100
  },
  {
    "Compound": "Cn1nc(C(F)F)c(C(=O)N(Cc2cccc3c2C2CCC3C2=C(Cl)Cl)C2CC2)c1Cl (stereo not drawn) [I.06]",
    "Efficacy, %": 71
  },
  {
    "Compound": "Cn1nc(C(F)F)c(C(=O)N(Cc2cccc3c2C2CCC3C2=C(Cl)Cl)C2CC2)c1F (stereo not drawn) [I.08]",
    "Efficacy, %": 100
  }
]

Sure, the documented Efficacy for Cn1nc(C(F)F)c(C(=S)N(Cc2cccc3c2C2CCC3C2=C(Cl)Cl)C2CC2)c1F (stereo not drawn) [I.11] is 100

Consider Cc1cc(C(=O)N(Cc2cccc3c2C2C=CC3O2)C2CC2)c(C)o1 (stereo not drawn) [I.16] . Its measured Efficacy is 81

Sure, the documented Efficacy for Cn1nc(C(F)F)c(C(=O)N(Cc2cccc3c2C2CCC3C2)C2CC2)c1F (stereo not drawn) [I.01] is 100

Lookup result for Cn1cc(C(=S)N(Cc2cccc3c2C2CCC3C2=C(Cl)Cl)C2CC2)c(C(F)F)n1 (stereo not drawn) [I.10] ; measured Efficacy: 100

* * *

Each record here notes measured chromatographic logP.
# Assay notes: log P by HPLC on reversed-phase column (C 18), EEC Directive 79/831 Annex V.A8
# Type: physicochemical
# Conditions: reversed-phase HPLC column (C 18); Table 3 (aldehydes of formula IV); HPLC, 0.1% aqueous formic acid and acetonitrile; read-out: logP
Returns: the value as a bare number; no unit string appended.

[
  {
    "Compound": "O=Cc1cccc2c1C1C=CC2O1 (stereo not shown)",
    "chromatographic logP": 1.5
  },
  {
    "Compound": "O=Cc1cccc2c1C1CCC2O1 (stereo not shown)",
    "chromatographic logP": 1.66
  },
  {
    "Compound": "O=Cc1cccc2c1C1C=CC2C1 (stereo not shown)",
    "chromatographic logP": 2.73
  }
]

Measured chromatographic logP, O=Cc1cccc2c1C1CCC2C1 (stereo not shown) : 3.13

* * *

# Assay notes: log P by HPLC on reversed-phase column (C 18), EEC Directive 79/831 Annex V.A8
# Assay type: physicochemical
# Conditions: Table 1; HPLC, 40° C., 0.1% aqueous formic acid and acetonitrile
# logP per entry
Write the value as a bare number.

The compound listed as Cn1cc(C(=S)N(Cc2cccc3c2C2CCC3C2=C(Cl)Cl)C2CC2)c(C(F)F)n1 (stereo not drawn) shows logP equal to 4.83

Lookup result for Cn1nc(C(F)F)c(C(=O)N(Cc2cccc3c2C2C=CC3O2)C2CC2)c1F (stereo not drawn) ; measured logP: 2.31

The recorded logP for Cn1nc(C(F)F)c(C(=O)N(Cc2cccc3c2C2CCC3C2)C2CC2)c1F (stereo not drawn) is 3.87

According to the records, this compound Cn1nc(C(F)F)c(C(=O)N(Cc2cccc3c2C2CCC3C2=C(Cl)Cl)C2CC2)c1Cl (stereo not drawn) displays logP of 4.66

Record Cn1nc(C(F)F)c(C(=S)N(Cc2cccc3c2C2CCC3C2)C2CC2)c1F (stereo not drawn) , field logP: 4.64

Short answer for Cn1nc(C(F)F)c(C(=O)N(Cc2cccc3c2C2C=CC3O2)C2CC2)c1Cl (stereo not drawn) : logP was 2.42

logP recorded for this compound, Cn1nc(C(F)F)c(C(=S)N(Cc2cccc3c2C2C=CC3O2)C2CC2)c1F (stereo not drawn) , is 3.04
